Provenance of the data: patent US20110158992A1

Molecular target: T1, biotinylated huIL-23R-IgG (human, UniProt Q5VWK5 24-353, biotinylated)
T1 construct: not shown: human IgG1 Fc
T1 sequence: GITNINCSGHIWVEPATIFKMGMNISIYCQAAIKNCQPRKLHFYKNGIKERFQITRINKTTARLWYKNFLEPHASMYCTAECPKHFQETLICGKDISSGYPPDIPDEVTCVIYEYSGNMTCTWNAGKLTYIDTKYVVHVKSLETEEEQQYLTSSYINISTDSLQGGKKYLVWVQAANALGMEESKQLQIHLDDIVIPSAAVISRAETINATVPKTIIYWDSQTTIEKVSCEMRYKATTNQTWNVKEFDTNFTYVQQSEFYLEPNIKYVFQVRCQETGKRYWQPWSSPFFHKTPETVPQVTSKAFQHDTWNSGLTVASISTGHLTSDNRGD
Assay: ECL binding assay, periplasmic Fab extracts, biotinylated huIL-23R-IgG; AUC vs parental 8B10 Fab
The binders listed here are annotated with their Binding (% of w.t.).

Check out these entries, answers already filled in.
>  <BINDER>
chimeric 8B10 Fab, VL Y30A (Fab, V domains shown, Rat V domains with human CH1 and CL; E. coli periplasmic extract) VH: EVKLVESGGGLEQPKGSLKLSCTVSGFDFNSYGMSWVRQAPGKGLDLVADINSKSYNYATYYADSVKDRFTISRDDSQSMVYLEMDNLKTEDTALYYCTVHHSDYFEYWGQGVMVTVSS VL: DIQMTQSPASLSASLGETVSIECLASEDIANNLAWYQQKPGKSPQLLIYHASSLQDGVPSRFSGSGSGTQYSLKINSLESEDAATYFCLQDSEYPPTFGGGTKLELKR

>  <Binding (% of w.t.)>
3.2 % of w.t.

$$$$
>  <BINDER>
chimeric 8B10 Fab, VH Y61A (Fab, V domains shown, Rat V domains with human CH1 and CL; E. coli periplasmic extract) VH: EVKLVESGGGLEQPKGSLKLSCTVSGFDFNSYGMSWVRQAPGKGLDLVADINSKSYNYATAYADSVKDRFTISRDDSQSMVYLEMDNLKTEDTALYYCTVHHSDYFEYWGQGVMVTVSS VL: DIQMTQSPASLSASLGETVSIECLASEDIYNNLAWYQQKPGKSPQLLIYHASSLQDGVPSRFSGSGSGTQYSLKINSLESEDAATYFCLQDSEYPPTFGGGTKLELKR

>  <Binding (% of w.t.)>
41.7 % of w.t.

$$$$

Field Binding (% of w.t.) (entry chimeric 8B10 Fab, VH E107A (Fab, V domains shown, Rat V domains with human CH1 and CL; E. coli periplasmic extract) VH: EVKLVESGGGLEQPKGSLKLSCTVSGFDFNSYGMSWVRQAPGKGLDLVADINSKSYNYATYYADSVKDRFTISRDDSQSMVYLEMDNLKTEDTALYYCTVHHSDYFAYWGQGVMVTVSS VL: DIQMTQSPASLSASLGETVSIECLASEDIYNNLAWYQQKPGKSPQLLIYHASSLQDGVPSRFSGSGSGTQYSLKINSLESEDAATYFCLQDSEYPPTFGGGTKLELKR ) reads 61 % of w.t.

// recorded Binding (% of w.t.) for chimeric 8B10 Fab, VH S53A (Fab, V domains shown, Rat V domains with human CH1 and CL; E. coli periplasmic extract; also called S53A (heavy chain variable domain)) VH: EVKLVESGGGLEQPKGSLKLSCTVSGFDFNSYGMSWVRQAPGKGLDLVADINAKSYNYATYYADSVKDRFTISRDDSQSMVYLEMDNLKTEDTALYYCTVHHSDYFEYWGQGVMVTVSS VL: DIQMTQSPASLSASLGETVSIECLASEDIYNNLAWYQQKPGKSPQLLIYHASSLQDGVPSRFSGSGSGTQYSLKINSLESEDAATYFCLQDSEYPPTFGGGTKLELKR : 88.7 % of w.t.

Value of measured Binding (% of w.t.) for the entry chimeric 8B10 Fab, VH R74A (Fab, V domains shown, Rat V domains with human CH1 and CL; E. coli periplasmic extract) VH: EVKLVESGGGLEQPKGSLKLSCTVSGFDFNSYGMSWVRQAPGKGLDLVADINSKSYNYATYYADSVKDRFTISADDSQSMVYLEMDNLKTEDTALYYCTVHHSDYFEYWGQGVMVTVSS VL: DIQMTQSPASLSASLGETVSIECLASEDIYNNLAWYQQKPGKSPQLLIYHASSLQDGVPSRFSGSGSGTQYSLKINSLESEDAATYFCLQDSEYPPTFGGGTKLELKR : 52.6 % of w.t.

Binding (% of w.t.) reported for this binder chimeric 8B10 Fab, VH S55A (Fab, V domains shown, Rat V domains with human CH1 and CL; E. coli periplasmic extract) VH: EVKLVESGGGLEQPKGSLKLSCTVSGFDFNSYGMSWVRQAPGKGLDLVADINSKAYNYATYYADSVKDRFTISRDDSQSMVYLEMDNLKTEDTALYYCTVHHSDYFEYWGQGVMVTVSS VL: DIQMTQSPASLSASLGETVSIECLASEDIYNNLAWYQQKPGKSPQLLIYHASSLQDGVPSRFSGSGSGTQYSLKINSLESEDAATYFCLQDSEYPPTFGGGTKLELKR : 105 % of w.t.

GET /value?item= chimeric 8B10 Fab, VL D91A (Fab, V domains shown, Rat V domains with human CH1 and CL; E. coli periplasmic extract) VH: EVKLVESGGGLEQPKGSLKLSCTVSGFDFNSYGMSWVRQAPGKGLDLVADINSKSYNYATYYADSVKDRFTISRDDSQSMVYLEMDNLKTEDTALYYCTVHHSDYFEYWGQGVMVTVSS VL: DIQMTQSPASLSASLGETVSIECLASEDIYNNLAWYQQKPGKSPQLLIYHASSLQDGVPSRFSGSGSGTQYSLKINSLESEDAATYFCLQASEYPPTFGGGTKLELKR &field=Binding (% of w.t.) returns 5.6 % of w.t.

# Binding (% of w.t.) (binder: chimeric 8B10 Fab, VH A49G (Fab, V domains shown, Rat V domains with human CH1 and CL; E. coli periplasmic extract) VH: EVKLVESGGGLEQPKGSLKLSCTVSGFDFNSYGMSWVRQAPGKGLDLVGDINSKSYNYATYYADSVKDRFTISRDDSQSMVYLEMDNLKTEDTALYYCTVHHSDYFEYWGQGVMVTVSS VL: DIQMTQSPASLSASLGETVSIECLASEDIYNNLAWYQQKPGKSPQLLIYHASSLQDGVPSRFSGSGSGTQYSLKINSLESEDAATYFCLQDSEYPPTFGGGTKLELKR ) is 79 % of w.t.

The binder identified as chimeric 8B10 Fab, VL N31T (Fab, V domains shown, Rat V domains with human CH1 and CL; E. coli periplasmic extract) VH: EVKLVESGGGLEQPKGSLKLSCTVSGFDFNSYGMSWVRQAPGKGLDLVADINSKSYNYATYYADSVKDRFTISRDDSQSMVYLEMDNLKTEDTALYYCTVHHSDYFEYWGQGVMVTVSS VL: DIQMTQSPASLSASLGETVSIECLASEDIYTNLAWYQQKPGKSPQLLIYHASSLQDGVPSRFSGSGSGTQYSLKINSLESEDAATYFCLQDSEYPPTFGGGTKLELKR registered its Binding (% of w.t.) at 129 % of w.t.

Briefly, Binding (% of w.t.) measured for chimeric 8B10 Fab, VL E27A (Fab, V domains shown, Rat V domains with human CH1 and CL; E. coli periplasmic extract) VH: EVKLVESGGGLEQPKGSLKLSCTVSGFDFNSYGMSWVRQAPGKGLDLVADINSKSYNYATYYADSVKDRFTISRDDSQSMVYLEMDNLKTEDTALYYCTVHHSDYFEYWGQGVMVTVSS VL: DIQMTQSPASLSASLGETVSIECLASADIYNNLAWYQQKPGKSPQLLIYHASSLQDGVPSRFSGSGSGTQYSLKINSLESEDAATYFCLQDSEYPPTFGGGTKLELKR : 96.2 % of w.t.
